- assay target: Cytochrome P450 2C9 (Homo sapiens) (UniProt P11712)
- Sequence (P11712 whole entry, looked up): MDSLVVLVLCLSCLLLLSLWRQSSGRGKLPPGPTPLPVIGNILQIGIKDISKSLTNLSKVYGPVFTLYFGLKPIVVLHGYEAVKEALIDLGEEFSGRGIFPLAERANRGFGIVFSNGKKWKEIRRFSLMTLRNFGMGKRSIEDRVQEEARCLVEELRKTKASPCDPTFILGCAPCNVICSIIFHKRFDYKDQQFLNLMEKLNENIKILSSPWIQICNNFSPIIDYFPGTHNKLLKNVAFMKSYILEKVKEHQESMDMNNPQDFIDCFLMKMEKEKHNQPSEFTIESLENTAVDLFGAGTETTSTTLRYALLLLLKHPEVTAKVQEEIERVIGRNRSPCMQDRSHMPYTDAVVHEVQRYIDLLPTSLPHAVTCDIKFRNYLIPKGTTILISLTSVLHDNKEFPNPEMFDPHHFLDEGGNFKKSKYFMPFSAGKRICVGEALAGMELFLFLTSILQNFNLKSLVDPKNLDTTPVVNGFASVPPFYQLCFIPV
- run description: Cytochrome panel assay with activity outcomes
- condition parameters: recombinant CYP, pro-luciferin dealkylation, luminescence, p450-cyp2c9; series mostly up to 57.1 µM
Hit rate of the full screen: of about 16,000 compounds, about 4,000 (25%) were called active. Inconclusive results (about 26%) are left out. The call rests on the fitted dose curve; in most records, active means well fitted curve in the direction sought with a large enough effect; inconclusive means small, poorly fitted or top-dose-only effect, or effect the other way; inactive means no such curve, though single readings can be large or run the other way. The list is a sample of the results.
Bench note: report the call from active, inactive

Known results for compounds:
compound=O=C(c1cc(C(F)(F)F)cc(C(F)(F)F)c1)N1CCC2(CCCN(c3ncccn3)C2)CC1 label_value=inactive
compound=CC(=O)N1CCC2(CCCN(c3ncccn3)C2)CC1 label_value=inactive
compound=O=C(c1cccc(F)c1)N1CCC2(CC1)CCN(c1ccccc1)CC2 label_value=inactive
compound=CCn1c(=O)cc(OCC(=O)Nc2cccnc2)c2ccccc21 label_value=active
compound="CC(C(=O)Nc1cccnc1)N1C(=O)C2C3C=CC(C3)C2C1=O (configuration not stated)" label_value=inactive

Per the records of this test, what outcome belongs to COc1ccc2[nH]cc(CCNc3ncncc3-c3ccc(C(=O)N(C)C)cc3)c2c1 ?
active

Now give it for CCO[C@H]1O[C@@H]([C@H](COCc2ccccc2)OCc2ccccc2)[C@@H](OCc2ccccc2)[C@H]1O too.
active

Now give it for Cc1ccc(C(=O)C(OC(=O)CN2C(=O)c3ccccc3C2=O)c2ccccc2)cc1 (configuration not stated) too.
inactive

Now give it for CCSc1ncc(/C=N/Nc2ccc(F)cc2)n1C too.
active

Now give it for COc1cccc(-c2cc(C(F)(F)F)nc(N3CCOCC3)n2)c1 too.
active

Now give it for COc1ccc(-c2cc(C(F)(F)F)nc(NC3CCCC3)n2)cc1OC too.
active

Now give it for Cc1ccc(C(=O)C(OC(=O)CNS(=O)(=O)c2ccccc2)c2ccccc2)cc1 (configuration not stated) too.
active

Now give it for Cc1ccc(S(=O)(=O)N(Cc2ccccc2)c2ccccc2C(=O)NCc2ccco2)cc1 too.
active

Now give it for Cc1ccc(S(=O)(=O)N2CCCC(C(=O)NCCCN3CCCCC3C)C2)cc1 (configuration not stated) too.
inactive

Now give it for CN(C)C(=O)Oc1cccc([N+](C)(C)C)c1 too.
inactive

Now give it for COc1ccc(-c2cc(C(F)(F)F)nc(N3CCCCC3)n2)cc1OC too.
active

Now give it for COc1ccccc1-c1cc(C(F)(F)F)nc(S(=O)(=O)CCCC(=O)NC(C)C)n1 too.
inactive

###

- assay target: Cytochrome P450 2C9 (Homo sapiens) (UniProt P11712)
- run description: Cytochrome panel assay with activity outcomes
- condition parameters: recombinant CYP, pro-luciferin dealkylation, luminescence, p450-cyp2c9; series mostly up to 57.1 µM
In all, about 16,000 compounds went through this assay and about 4,000 (25%) were called active. Another 26% or so got no clear call; they are omitted. Calls come from the whole dose curve; as a rule, active = well fitted curve in the direction sought with a large enough effect; inconclusive = small, poorly fitted or top-dose-only effect, or effect the other way; inactive = no such curve, though single readings can be large or run the other way. The list is a sample of the results.
Bench note: report the call from active, inactive

Known results for compounds:
compound="CN1CC(c2ccccn2)C2(SC(=S)N(Cc3ccccc3)C2=O)C12C(=O)Nc1ccccc12 (stereo unspecified)" label_value=active
compound=Nc1ccc(N2C(=O)c3ccccc3C2=O)c(Cl)c1 label_value=inactive
compound=COC(=O)c1sccc1NC(=O)CSc1cc(Cl)ccc1Cl label_value=active
compound=COC(=O)c1sccc1NC(=O)CSc1ccc(Cl)cc1 label_value=active

Per the records of this test, what outcome belongs to COc1ccc(C(NC(=O)c2ccc(-c3ccccc3)cc2)c2ccccc2)cc1 (stereo unspecified) ?
inactive

Now give it for Cc1ccc(-n2ncc(N(C)C)c(Cl)c2=O)cc1 too.
inactive
